Readings of normalized growth for the listed compounds
test: chemical genetic growth profiling, strain panel (AID 1159580);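 further: tested at 20 µM; growth read once vehicle control cultures reached saturation at 30 °C; 1 = growth at the plate median or of vehicle wells; lower values mean less growth of the strain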; conditions: S. cerevisiae deletion strains, growth OD, locus YFL029C, strain CAK1, hits give low values
Hit rate of the full screen: of about 5,500 compounds, about 2,000 (36%) were called active. Roughly 18% stayed inconclusive and do not appear here. This is one part of the list.
Measured Endpoint: normalized growth

>>> assay_value("O=C(NCc1ccc2c(c1)OCO2)c1cc2ccccc2s1")
0.852
>>> assay_value("O=[N+]([O-])c1cc(C(F)(F)F)ccc1Sc1n[nH]c(-c2cc(Cl)cc(Cl)c2)n1")
0.929
>>> assay_value("CC1SC(c2cccnc2)N(c2ccc(F)cc2F)C1=O (stereo not drawn)")
0.997
>>> assay_value("O=C1c2ccccc2C(=O)c2sccc21")
0.4
>>> assay_value("Cc1csc2ncnc(N3CCN(C(=S)Nc4ccc(C(F)(F)F)cc4)CC3)c12")
0.983
>>> assay_value("O=C(Nc1ccccc1Sc1ccc(C(F)(F)F)cc1[N+](=O)[O-])C(Cl)Cl")
0.996
>>> assay_value("COc1ccc(OC)c2nc3c(nc12)C(=O)c1ccccc1-3")
0.969
>>> assay_value("Cc1cc(N=Cc2cc(Cl)cc(Cl)c2O)no1")
0.958

###

assay: chemical genetic growth profiling, strain panel (AID 1159580); details: S. cerevisiae deletion strains, growth OD, locus YNL153C, strain GIM3, hits give low values
Out of some 5,500 compounds screened, about 2,000 (36%) were called active. Not shown: some 18% with an inconclusive outcome. The list shows a part of the results.
Measured Endpoint: normalized growth

>>> assay_value("COc1ccccc1OCC(O)COC(N)=O (stereo not drawn)")
"1.01 (inactive)"
>>> assay_value("COc1cc(OC)c2c(OC)c(-c3ccc4c(c3)OCO4)c(=O)oc2c1")
"0.988 (inactive)"
>>> assay_value("CCCc1ccc(/C(C)=N\\O)cc1")
"0.946 (inactive)"

###

Readings of normalized growth for the listed compounds
assay: chemical genetic growth profiling, strain panel (AID 1159580);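 further: tested at 20 µM; growth read once vehicle control cultures reached saturation at 30 °C; 1 = growth at the plate median or of vehicle wells; lower values mean less growth of the strain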; details: S. cerevisiae deletion strains, growth OD, locus YJR066W, strain TOR1, hits give low values
Out of some 5,500 compounds screened, about 2,000 (36%) were called active. About 18% were inconclusive and are not listed. The list shows a part of the results.
Measured Endpoint: normalized growth

>>> assay_value("O=c1c(O)c(-c2ccc(O)cc2)oc2ccccc12")
"0.842 (inactive)"
>>> assay_value("Cc1cc2c(s1)Nc1ccccc1N=C2N1CCN(C)CC1")
"0.944 (inactive)"
>>> assay_value("O=C(OCCNc1ccc([N+](=O)[O-])cn1)c1ccc([N+](=O)[O-])o1")
"0.78 (inactive)"

###

assay: chemical genetic growth profiling, strain panel (AID 1159580);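 further: tested at 20 µM; growth read once vehicle control cultures reached saturation at 30 °C; 1 = growth at the plate median or of vehicle wells; lower values mean less growth of the strain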; conditions: S. cerevisiae deletion strains, growth OD, locus YML070W, strain DAK1, hits give low values
Among all 5,500 compounds or so, about 2,000 (36%) were called active. About 18% were inconclusive and are not listed. This is one part of the list.
Doc: threshold 0.9 (exclusive). Items with normalized growth beneath it return YES; others return NO.

>>> qualitative_label("CC1SC(c2cccnc2)N(c2ccc(F)cc2F)C1=O (centres undefined)")
"NO"
>>> qualitative_label("CC(C)Sc1c(Cl)cccc1NC(=O)Nc1cccc(C(F)(F)F)c1")
"NO"
>>> qualitative_label("COC(=O)c1cccc(NS(=O)(=O)c2ccc(Cl)c(Cl)c2)c1")
"NO"
>>> qualitative_label("CC(=O)c1ccc(Sc2ccccc2)c([N+](=O)[O-])c1")
"YES"
>>> qualitative_label("O=S(=O)(Nc1c(F)cccc1F)c1ccc(Cl)c(Cl)c1")
"NO"
>>> qualitative_label("Cc1cc2nc3c(Cl)c(O)c4ccccc4c3nc2cc1C")
"YES"
>>> qualitative_label("Cc1oc(C(C)(C)C)cc1-c1cc(NC(=O)c2ccccc2)n[nH]1")
"YES"
>>> qualitative_label("COc1cc(C2SCCS2)cc(Br)c1OC(=O)NC(=O)c1c(Cl)cccc1Cl")
"NO"
>>> qualitative_label("CC(C)(C)c1ccc(-c2cc(NC(=O)c3ccc(Cl)cc3)n[nH]2)cc1")
"NO"
>>> qualitative_label("Cc1cc(N=Cc2cc(Cl)cc(Cl)c2O)no1")
"YES"
>>> qualitative_label("O=S(=O)(Nc1cc(C(F)(F)F)cc(C(F)(F)F)c1)c1ccc(Cl)s1")
"YES"
>>> qualitative_label("CC(C)c1cccc(C(C)C)c1OC(=O)NC(=O)c1c(Cl)cccc1Cl")
"NO"
>>> qualitative_label("COC(=O)c1cc([N+](=O)[O-])ccc1S(=O)(=O)Cc1ccc(Cl)cc1")
"NO"
>>> qualitative_label("Cc1cc(Sc2c([N+](=O)[O-])cc(C(F)(F)F)cc2[N+](=O)[O-])c(Cl)cc1Cl")
"NO"
>>> qualitative_label("COC(=S)Nc1cc(Cl)cc(Cl)c1")
"YES"
>>> qualitative_label("CC(C)Sc1c(Cl)cccc1NC(=O)Nc1ccccc1")
"YES"
>>> qualitative_label("CC(C)OC(=O)Nc1cc(Cl)cc(Cl)c1")
"YES"
>>> qualitative_label("O=[N+]([O-])c1ccc(Sc2ccccc2)c([N+](=O)[O-])c1")
"YES"

###

assay: chemical genetic growth profiling, strain panel (AID 1159580);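 further: tested at 20 µM; growth read once vehicle control cultures reached saturation at 30 °C; 1 = growth at the plate median or of vehicle wells; lower values mean less growth of the strain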; settings: S. cerevisiae deletion strains, growth OD, locus YER015W, strain faa2
Hit rate of the full screen: of about 5,500 compounds, about 2,000 (36%) were called active. About 18% were inconclusive and are not listed. Cut-off read from the data, not from the text of the source: active = normalized growth mostly below about 0.91 (no sharp cut-off); inconclusive = no clear call, values can overlap the other calls; inactive = mostly above about 0.92. This is one part of the list.
Possible outcomes: yes = active, no = inactive

>>> qualitative_label("O=C(Nc1ccc([N+](=O)[O-])cc1Cl)c1cc(Cl)ccc1O")
"yes"
>>> qualitative_label("CC(C)=CCC/C(C)=C/CO")
"no"
>>> qualitative_label("COCC1=C(C(=O)OC(C)OC(=O)OC(C)C)N2C(=O)[C@@H](NC(=O)/C(=N\\OC)c3csc(N)n3)[C@H]2SC1 (stereo partly specified)")
"no"
>>> qualitative_label("CNC(C)(C)Cc1ccccc1")
"no"
>>> qualitative_label("CC(=CC1CCC(C)C2C1=C(C)CC2O)C(=O)O (stereo unspecified)")
"no"
>>> qualitative_label("OC[C@H]1O[C@@H](Oc2ccc(O)cc2)[C@H](O)[C@@H](O)[C@@H]1O")
"no"
>>> qualitative_label("Cn1c(=O)c2c(ncn2CCO)n(C)c1=O")
"no"
>>> qualitative_label("C/C(=C\\CO)CC[C@H](C)CCC[C@H](C)CCCC(C)C")
"yes"
>>> qualitative_label("NNCc1ccccc1")
"no"
>>> qualitative_label("O=C1c2cccc(O)c2C(=O)c2c(O)cccc21")
"yes"
>>> qualitative_label("CC12CCC(O)CC1CCc1ccccc12 (stereo unspecified)")
"no"
>>> qualitative_label("O=C(/C=C/c1ccccc1)c1ccc(O)cc1O")
"yes"
>>> qualitative_label("COc1ccc([C@@H](C)C(=O)c2ccc(O)cc2O)cc1")
"no"
>>> qualitative_label("CC(C)[C@@H]1CC[C@@H](C)C[C@H]1OC(=O)c1ccccc1")
"no"
>>> qualitative_label("CN1CCC[C@H]1c1cccnc1")
"no"
>>> qualitative_label("CCC[C@@H]1C[C@@H](C(=O)N[C@H]([C@H]2O[C@H](SC)[C@H](O)[C@@H](O)[C@H]2O)[C@H](C)O)N(C)C1")
"no"
>>> qualitative_label("O=c1c(O)c(-c2ccccc2)oc2ccc3occc3c12")
"yes"
>>> qualitative_label("CC(C)[C@@H]1CC[C@@H](C)CC1=O")
"no"
>>> qualitative_label("CC(=O)OC1CCC23CC1(C)CCC2C(C)(C)CC3OC(C)=O (stereo unspecified)")
"no"
>>> qualitative_label("COc1cc(O)ccc1C(C)=O")
"no"
>>> qualitative_label("O=C1C=C(O)c2ccccc2C1=O")
"no"
>>> qualitative_label("CC(=O)Oc1c(C)c(C)c2c(c1C)CCC(C)(CCCC(C)CCCC(C)CCCC(C)C)O2 (stereo unspecified)")
"no"
>>> qualitative_label("CC(C)CCCC(C)N (stereo unspecified)")
"no"
>>> qualitative_label("O=c1c(O)cccc2cc(O)c(O)c(O)c12")
"yes"
>>> qualitative_label("Oc1cccc2cccnc12")
"yes"
>>> qualitative_label("Cn1c(=O)c2c(ncn2C)n(C)c1=O")
"no"
>>> qualitative_label("O=C(O)CCC(=O)OC[C@@H](NC(=O)C(Cl)Cl)[C@H](O)c1ccc([N+](=O)[O-])cc1")
"no"
>>> qualitative_label("O=C1C=CC(=O)c2c(O)cccc21")
"no"
>>> qualitative_label("CCCCCCCCCCCCCCCC(=O)OC[C@H](NC(=O)C(Cl)Cl)[C@H](O)c1ccc([N+](=O)[O-])cc1")
"no"
>>> qualitative_label("O=C(O)[C@H]1/C(=C/CO)O[C@@H]2CC(=O)N21")
"no"
>>> qualitative_label("COC(=O)CC1C(C)(C(=O)c2ccoc2)CC2OCC34C(CC(=O)OC)C5(C)CC36OC3(C)OC1(C(OC(C)=O)C6(OC(C)=O)C5OC(=O)C(C)C)C24O3 (stereo unspecified)")
"no"
>>> qualitative_label("CCCCCC/C=C\\CCCCCCCc1cccc(O)c1C(=O)O")
"no"
>>> qualitative_label("CCCN(CCC)c1c([N+](=O)[O-])cc(C(F)(F)F)cc1[N+](=O)[O-]")
"no"
>>> qualitative_label("C[C@H]1C(=O)CCC2[C@]3(C)CC[C@@]4(C)C5CC(C)(C)CC[C@]5(C)CC[C@]4(C)C3CC[C@@]21C (stereo partly specified)")
"no"
>>> qualitative_label("CCC1(C2=NCCN2)Cc2ccccc2O1 (stereo unspecified)")
"no"
>>> qualitative_label("CCCCN(CC)c1c([N+](=O)[O-])cc(C(F)(F)F)cc1[N+](=O)[O-]")
"no"
